Notes on pIC50 obtained with Hepatocyte growth factor receptor (Homo sapiens, UniProt P08581).
Sequence (P08581 whole entry): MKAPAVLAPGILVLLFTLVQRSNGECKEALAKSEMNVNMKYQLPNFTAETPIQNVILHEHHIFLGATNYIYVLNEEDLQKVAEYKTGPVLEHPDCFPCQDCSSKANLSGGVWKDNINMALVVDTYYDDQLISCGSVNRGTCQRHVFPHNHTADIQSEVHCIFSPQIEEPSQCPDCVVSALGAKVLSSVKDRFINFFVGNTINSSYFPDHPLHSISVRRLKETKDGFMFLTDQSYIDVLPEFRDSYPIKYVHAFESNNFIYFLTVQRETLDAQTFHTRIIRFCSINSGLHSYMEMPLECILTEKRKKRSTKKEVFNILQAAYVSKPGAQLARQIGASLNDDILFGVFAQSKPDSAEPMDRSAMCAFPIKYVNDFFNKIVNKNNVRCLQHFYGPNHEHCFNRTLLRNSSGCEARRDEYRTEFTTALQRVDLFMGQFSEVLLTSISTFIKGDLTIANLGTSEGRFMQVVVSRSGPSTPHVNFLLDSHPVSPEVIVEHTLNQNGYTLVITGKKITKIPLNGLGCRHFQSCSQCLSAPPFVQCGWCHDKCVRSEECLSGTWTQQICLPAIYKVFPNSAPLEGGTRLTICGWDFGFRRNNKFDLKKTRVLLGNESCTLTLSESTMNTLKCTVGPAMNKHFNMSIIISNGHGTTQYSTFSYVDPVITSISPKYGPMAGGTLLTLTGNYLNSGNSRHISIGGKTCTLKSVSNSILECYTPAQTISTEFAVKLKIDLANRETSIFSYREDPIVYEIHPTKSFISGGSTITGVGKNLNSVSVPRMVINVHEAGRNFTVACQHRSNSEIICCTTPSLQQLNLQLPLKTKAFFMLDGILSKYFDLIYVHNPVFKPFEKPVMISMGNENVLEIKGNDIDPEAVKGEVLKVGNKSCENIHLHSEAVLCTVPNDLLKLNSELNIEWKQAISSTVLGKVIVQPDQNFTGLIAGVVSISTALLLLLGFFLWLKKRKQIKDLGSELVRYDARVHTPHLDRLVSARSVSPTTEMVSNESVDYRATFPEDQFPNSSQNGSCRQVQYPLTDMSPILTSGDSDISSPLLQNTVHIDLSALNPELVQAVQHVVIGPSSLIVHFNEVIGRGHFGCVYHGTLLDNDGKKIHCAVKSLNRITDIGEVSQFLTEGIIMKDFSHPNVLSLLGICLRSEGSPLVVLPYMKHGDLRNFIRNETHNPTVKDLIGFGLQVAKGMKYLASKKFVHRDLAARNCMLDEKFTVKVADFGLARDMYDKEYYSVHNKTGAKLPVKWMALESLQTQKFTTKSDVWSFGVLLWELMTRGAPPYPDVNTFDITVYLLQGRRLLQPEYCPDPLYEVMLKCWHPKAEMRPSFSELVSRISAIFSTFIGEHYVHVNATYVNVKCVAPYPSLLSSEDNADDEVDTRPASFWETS
pIC50: −log10 of the molar value.

Hi, could you look up pIC50 for each item in my list?
1. CCCCC(=O)Nc1ccc2c(c1)/C(=C1/Nc3ccccc3/C1=N\O)C(=O)N2
2. CCCC(=O)Nc1ccc2c(c1)/C(=C1/Nc3ccccc3/C1=N\O)C(=O)N2
3. CC(C)(C)C(=O)Nc1ccc2c(c1)/C(=C1/Nc3ccccc3/C1=N\O)C(=O)N2

1: < 5.00; 2: < 5.00; 3: < 5.00

---

Answer each item with its documented IC50.
molecular target: Insulin receptor (Homo sapiens, UniProt P06213)
Sequence (P06213 28-758 limits assumed): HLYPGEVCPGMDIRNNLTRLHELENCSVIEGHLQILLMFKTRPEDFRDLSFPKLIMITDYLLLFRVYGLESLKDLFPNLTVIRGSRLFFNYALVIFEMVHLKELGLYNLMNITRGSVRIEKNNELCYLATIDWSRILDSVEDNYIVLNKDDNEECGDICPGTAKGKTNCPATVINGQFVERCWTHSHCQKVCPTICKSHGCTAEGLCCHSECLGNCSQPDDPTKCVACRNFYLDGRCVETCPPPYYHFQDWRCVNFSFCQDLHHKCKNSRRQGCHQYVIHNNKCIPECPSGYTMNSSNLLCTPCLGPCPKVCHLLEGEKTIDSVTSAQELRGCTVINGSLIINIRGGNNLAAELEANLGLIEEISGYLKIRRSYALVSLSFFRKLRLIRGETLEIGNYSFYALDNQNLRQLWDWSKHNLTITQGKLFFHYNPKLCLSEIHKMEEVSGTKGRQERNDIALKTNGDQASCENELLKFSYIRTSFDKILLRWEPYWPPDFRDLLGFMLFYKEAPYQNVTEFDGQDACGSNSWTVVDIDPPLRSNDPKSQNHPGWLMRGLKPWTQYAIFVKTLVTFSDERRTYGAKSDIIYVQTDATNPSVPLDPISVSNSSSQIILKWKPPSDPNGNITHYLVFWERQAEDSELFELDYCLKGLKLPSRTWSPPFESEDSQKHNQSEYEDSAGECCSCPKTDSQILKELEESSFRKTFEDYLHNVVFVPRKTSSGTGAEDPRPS
Sequence (P06213 763-1382 limits assumed): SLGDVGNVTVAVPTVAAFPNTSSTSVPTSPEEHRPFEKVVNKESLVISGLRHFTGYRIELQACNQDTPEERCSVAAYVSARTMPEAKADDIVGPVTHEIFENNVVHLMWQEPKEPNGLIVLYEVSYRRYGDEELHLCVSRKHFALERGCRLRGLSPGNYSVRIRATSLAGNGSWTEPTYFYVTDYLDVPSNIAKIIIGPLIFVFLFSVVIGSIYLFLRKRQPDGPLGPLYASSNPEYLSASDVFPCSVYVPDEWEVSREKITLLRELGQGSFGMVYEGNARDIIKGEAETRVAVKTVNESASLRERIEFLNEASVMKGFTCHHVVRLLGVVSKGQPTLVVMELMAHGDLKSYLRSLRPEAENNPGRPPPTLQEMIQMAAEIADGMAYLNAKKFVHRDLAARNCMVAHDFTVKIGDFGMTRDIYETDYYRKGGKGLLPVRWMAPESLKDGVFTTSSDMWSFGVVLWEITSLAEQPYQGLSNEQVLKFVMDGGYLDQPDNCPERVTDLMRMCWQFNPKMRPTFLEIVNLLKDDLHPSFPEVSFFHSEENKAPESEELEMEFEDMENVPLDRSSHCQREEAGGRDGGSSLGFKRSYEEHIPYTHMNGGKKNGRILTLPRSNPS

{"columns": ["query smiles", "IC50"],
 "data": [
  ["CC(C)(C)C(=O)Nc1ccc2c(c1)/C(=C1/Nc3ccccc3/C1=N\\O)C(=O)N2", "> 10 µM"]
]}

Kindly consider the entry below.
// IC50 lookup, compound = "CCCC(=O)Nc1ccc2c(c1)/C(=C1/Nc3ccccc3/C1=N\O)C(=O)N2" , result: > 10 µM

---

Answer each item with its documented IC50.
molecular target: ALK tyrosine kinase receptor (Homo sapiens)
Sequence (Q9UM73 whole entry): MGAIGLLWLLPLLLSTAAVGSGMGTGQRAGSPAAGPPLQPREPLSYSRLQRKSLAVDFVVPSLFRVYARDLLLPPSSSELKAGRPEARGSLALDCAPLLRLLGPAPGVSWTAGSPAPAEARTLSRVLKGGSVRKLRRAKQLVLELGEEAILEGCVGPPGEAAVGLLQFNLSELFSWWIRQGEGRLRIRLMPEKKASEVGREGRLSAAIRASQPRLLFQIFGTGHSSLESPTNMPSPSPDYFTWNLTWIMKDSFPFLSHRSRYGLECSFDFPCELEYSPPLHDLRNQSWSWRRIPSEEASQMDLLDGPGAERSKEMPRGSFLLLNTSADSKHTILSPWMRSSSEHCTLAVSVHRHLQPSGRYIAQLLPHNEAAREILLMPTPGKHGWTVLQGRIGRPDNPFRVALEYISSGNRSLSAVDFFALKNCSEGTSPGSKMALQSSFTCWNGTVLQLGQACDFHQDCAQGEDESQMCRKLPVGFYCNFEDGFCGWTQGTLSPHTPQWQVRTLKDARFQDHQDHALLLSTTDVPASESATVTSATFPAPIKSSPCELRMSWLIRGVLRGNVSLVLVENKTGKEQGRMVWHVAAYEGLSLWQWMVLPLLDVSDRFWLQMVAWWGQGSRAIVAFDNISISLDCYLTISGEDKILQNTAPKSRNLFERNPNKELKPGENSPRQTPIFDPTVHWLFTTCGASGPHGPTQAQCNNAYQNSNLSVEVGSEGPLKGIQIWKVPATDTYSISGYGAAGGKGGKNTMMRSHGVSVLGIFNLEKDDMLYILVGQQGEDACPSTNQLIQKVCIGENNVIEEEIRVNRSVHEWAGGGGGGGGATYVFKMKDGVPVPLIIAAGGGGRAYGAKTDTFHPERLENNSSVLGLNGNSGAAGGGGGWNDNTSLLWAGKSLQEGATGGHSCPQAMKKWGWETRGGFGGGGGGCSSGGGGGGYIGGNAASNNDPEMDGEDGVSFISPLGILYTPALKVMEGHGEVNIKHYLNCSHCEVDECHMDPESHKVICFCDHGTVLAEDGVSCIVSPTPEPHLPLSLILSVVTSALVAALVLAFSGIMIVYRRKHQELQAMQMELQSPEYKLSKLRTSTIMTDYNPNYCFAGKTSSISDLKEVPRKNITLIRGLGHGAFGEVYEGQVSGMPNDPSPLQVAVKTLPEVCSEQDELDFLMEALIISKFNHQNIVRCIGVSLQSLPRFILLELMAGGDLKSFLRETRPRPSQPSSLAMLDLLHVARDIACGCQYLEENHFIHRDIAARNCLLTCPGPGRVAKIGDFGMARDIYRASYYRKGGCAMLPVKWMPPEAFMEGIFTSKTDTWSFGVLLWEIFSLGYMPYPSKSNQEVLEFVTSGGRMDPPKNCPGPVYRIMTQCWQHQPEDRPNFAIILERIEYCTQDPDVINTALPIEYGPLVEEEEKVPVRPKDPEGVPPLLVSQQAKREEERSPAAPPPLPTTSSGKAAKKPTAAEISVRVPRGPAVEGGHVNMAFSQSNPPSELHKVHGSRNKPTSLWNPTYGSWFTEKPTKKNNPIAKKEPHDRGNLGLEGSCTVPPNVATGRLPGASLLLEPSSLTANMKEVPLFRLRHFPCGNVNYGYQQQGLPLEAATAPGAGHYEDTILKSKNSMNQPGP

{"columns": ["query smiles", "outcome measure", "meas value"],
 "data": [
  ["CC(C)(C)C(=O)Nc1ccc2c(c1)/C(=C1/Nc3ccccc3/C1=N\\O)C(=O)N2", "IC50", "> 10 µM"]
]}

Short answer on ALK tyrosine kinase receptor (Homo sapiens) for "CCCCC(=O)Nc1ccc2c(c1)/C(=C1/Nc3ccccc3/C1=N\O)C(=O)N2" , IC50: > 10 µM

---

molecular target: Serine/threonine-protein kinase 17A (Homo sapiens)
Sequence (Q9UEE5 whole entry): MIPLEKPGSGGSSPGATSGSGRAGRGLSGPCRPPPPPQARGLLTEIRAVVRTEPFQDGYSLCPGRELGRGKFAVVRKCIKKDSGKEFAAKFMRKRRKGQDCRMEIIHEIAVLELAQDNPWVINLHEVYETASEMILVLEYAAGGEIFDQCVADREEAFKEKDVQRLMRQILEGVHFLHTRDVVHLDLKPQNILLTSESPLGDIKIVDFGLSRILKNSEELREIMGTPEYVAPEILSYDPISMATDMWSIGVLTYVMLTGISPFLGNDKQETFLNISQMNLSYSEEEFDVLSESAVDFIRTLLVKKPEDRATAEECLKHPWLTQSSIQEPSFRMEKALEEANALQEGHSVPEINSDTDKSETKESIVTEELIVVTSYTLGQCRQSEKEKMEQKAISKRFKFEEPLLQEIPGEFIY
Answer each item with its documented pIC50.
Numbers only, as −log10 of the molar value.

Check out these entries, answers already filled in.
{"columns": ["query smiles", "pIC50"],
 "data": [
  ["CC(C)(C)C(=O)Nc1ccc2c(c1)/C(=C1/Nc3ccccc3/C1=N\\O)C(=O)N2", 7.49],
  ["CC(C)=CC(=O)Nc1ccc2c(c1)/C(=C1/Nc3ccccc3/C1=N\\O)C(=O)N2", 6.92],
  ["O=C(COc1cccc(Cl)c1)Nc1ccc2c(c1)/C(=C1/Nc3ccccc3/C1=N\\O)C(=O)N2", 6.34],
  ["O=C1Nc2ccc(NC(=O)c3ccccc3)cc2/C1=C1/Nc2ccccc2/C1=N\\O", 6.44],
  ["Cc1ccc(C(=O)Nc2ccc3c(c2)/C(=C2/Nc4ccccc4/C2=N\\O)C(=O)N3)cc1", 5.89],
  ["O=C1Nc2ccc(NC(=O)c3ccc([N+](=O)[O-])cc3)cc2/C1=C1/Nc2ccccc2/C1=N\\O", 6.30],
  ["O=C1Nc2ccc(NC(=O)c3ccccc3C(F)(F)F)cc2/C1=C1/Nc2ccccc2/C1=N\\O", 6.49],
  ["CCCCC(=O)Nc1ccc2c(c1)/C(=C1/Nc3ccccc3/C1=N\\O)C(=O)N2", 7.29],
  ["O=C1Nc2ccc(NC(=O)C3CCCCC3)cc2/C1=C1/Nc2ccccc2/C1=N\\O", 6.96],
  ["O=C1Nc2ccc(NC(=O)c3ccccc3F)cc2/C1=C1/Nc2ccccc2/C1=N\\O", 6.60]
]}

Hi, could you look up pIC50 for each item in my list?
1. O=C1Nc2ccc(NC(=O)c3cccc4ccccc34)cc2/C1=C1/Nc2ccccc2/C1=N\O
2. COc1ccc(C(=O)Nc2ccc3c(c2)/C(=C2/Nc4ccccc4/C2=N\O)C(=O)N3)cc1

6.15
6.44
